- Test system: MOLT-4 leukemia
- experimental-details: NCI tumour cell line growth inhibition, 48 h
Provide the recorded TGI for the entries that follow.

In [3]: df
Out[3]:
                                   compound  value_kind  reported_result
0       Nc1ccc2ccc(NS(=O)(=O)N3CCCCC3)cc2c1         TGI         > 100 µM
1  CCCCCCCCCCCC(O)=C1C(=O)CC(O)CC1=O (configuration not stated)         TGI         > 100 µM
2  NC(=S)N/N=c1\cc(C(=O)Nc2ccc([N+](=O)[O-])cc2[N+](=O)[O-])oc2ccccc12         TGI         > 100 µM
3  CCCCN(CCCC)C(=O)C(=O)C(C)C(=O)CC (configuration not stated)         TGI         > 100 µM
4  COC1CC(CC2CCC(C)C(C(C)C(=O)O)O2)OC2(OC(C)(C3CCC(C)(C4OC(C5OC(O)(CO)C(C)CC5C)CC4C)O3)CC2C)C1C (configuration not stated)         TGI          6.13 µM

# per-item lookup of TGI; items listed below
1. COc1cc(NCC2COc3c(ccc(OC)c3OC)C2=O)c([N+](=O)[O-])cc1OC (configuration not stated)
2. O=C1CC(c2ccc(Cl)cc2)C2(C(=O)NC(=O)NC2=O)C(c2ccc(Cl)cc2)C1 (configuration not stated)

# output
1: > 100 µM; 2: 41.3 µM

---

- System: SR leukemia
- experimental-details: NCI tumour cell line growth inhibition, 48 h
Please respond with reported TGI for every item in the list.

Solved cases (3 shown):
>>> df
                                   compound  target_under_test  reported_result
0  O=S(=O)(O)/C(=C\c1ccccc1)c1ccccc1 (tested in a mixture with another compound)        SR leukemia         > 100 µM
1              O=c1c2ccccc2nc(-c2ccccc2)n1O        SR leukemia         > 100 µM
2      C[S+](C)CC(=O)c1ccc2c(c1)Sc1ccccc1O2        SR leukemia        > 50.9 µM

// batch mode: one TGI value per listed entry
1. CCc1c(O)c2c(c(O)c1C(C)=O)C(=O)c1c(cc(O)c(C(=O)O)c1C(=O)O)C2=O
2. COc1cccc(NC(=O)CC(=O)N2N=C(C)C(N=Nc3ccc(S(=O)(=O)CCOS(=O)(=O)O)cc3)C2=O)c1 (stereo unspecified)
3. CC(=O)Oc1cc(C)c(OC(C)=O)c2c1[C@H]1CC[C@]3(C)[C@@H](OC(C)=O)CC[C@H]3[C@@H]1CC2

# output
["> 100 µM", "> 100 µM", "> 100 µM"]

---

- Tested on: UO-31 renal
- experimental-details: NCI tumour cell line growth inhibition, 48 h
value-kind: TGI

Consider the worked cases shown below.
>>> df
                                   compound  reported_result
0  O=C(O)/C(=C\c1ccccc1Cl)S(=O)(=O)c1ccccc1         > 100 µM
1                  CCCCCCC#CC#Cc1cccc(=O)o1        > 27.4 µM
2     C/C(N=Nc1nc2ccccc2[nH]1)=C1/C=CC=CN1O         > 100 µM
3  CC(=O)NC(CCCNC(=O)NCCCl)C(=O)NCc1ccccc1 (stereo not given)         > 100 µM

As a next step, examine the compound that follows.
# input Identify measured TGI corresponding to `Cn1nc2ccc3nccc(N(CCO)CCO)c3c2n1`
# output > 100 µM

---

- Tested on: MOLT-4 leukemia
- experimental-details: NCI tumour cell line growth inhibition, 48 h
Can you tell me TGI for the items I'm about to list?

>>> df
                               entry_smiles  reported_result
0  COc1cc2ccc1OCc1cccc(n1)COc1ccc(cc1OC)C=Nc1ccc(cc1)-c1ccc(cc1)N=C2         > 100 µM
1  O=c1oc2ccccc2c(O)c1C(c1ccc2c(c1)Cc1ccccc1-2)c1c(O)c2ccccc2oc1=O         > 100 µM
2  COc1ccc(-c2nnc(N3CCN(C(=O)CN4CCN(c5ccc(Cl)cc5)CC4)CC3)nc2-c2ccc(OC)cc2)cc1         > 100 µM
3  Oc1c(I)cc(-c2nc3ccccc3s2)cc1CN(Cc1ccccn1)Cc1ccccn1         > 100 µM

With those in mind, consider the next compound.
# input Please supply the value of reported TGI for the item `BrC1=CC=C2NCCCCCCN=C3C=CC(Br)=CC=C3NCCCCCCN=C2C=C1`
# output > 25.5 µM

---

What TGI was measured for each of the following?
- System: MALME-3M melanoma
- experimental-details: NCI tumour cell line growth inhibition, 48 h

# annotated cases, reported TGI shown
>>> df
                               entry_smiles  value_kind  reported_result
0  COc1ccc(N=Nc2ccc3oc(=O)c(C(=O)Nc4ccc(Cl)cc4)cc3c2)cc1         TGI          > 10 µM
1  CN1CCN(c2ccc(NC3=C(Cl)C(=O)c4ncccc4C3=O)cc2C#N)CC1         TGI          2.81 µM

Okay, next one:
# input Please look at this compound and report its TGI: `BrC1=CC=C2NCCCCCCN=C3C=CC(Br)=CC=C3NCCCCCCN=C2C=C1`
# output > 25.5 µM

---

What TGI was measured for each of the following?
- Tested on: HCC-2998 colon
- experimental-details: NCI tumour cell line growth inhibition, 48 h
Give bare numbers, in µM.

>>> df
                               entry_smiles  reported_result
0  COc1ccc(C(=O)COc2cccc(/C=C3\CSc4ccc(Cl)cc4C3=O)c2)cc1               30

Could you now look at the following compound, please?
# input Given the compound `C(=C\c1nccc2c1[nH]c1ccccc12)/c1ccccc1` , write its reported TGI.
# output 9.43

---

- Test system: UO-31 renal
- experimental-details: NCI tumour cell line growth inhibition, 48 h
value-kind: TGI

Use these answered entries as a reference point.
In [3]: df
Out[3]:
                                   compound  reported_result
0  Cc1nc(Nc2ccccc2)sc1C(=O)NNc1ccc([N+](=O)[O-])cc1[N+](=O)[O-]         > 100 µM
1  Cc1cnoc1NS(=O)(=O)c1ccc(Nc2nnc(/C=C/c3c(O)ccc4ccccc34)c(=O)n2N)cc1         > 100 µM
2  C/C1=C\C/C=C(\C)[C@H]2CC(CC/C(C)=C/CC1)[C@](C)(C=O)O2         > 100 µM
3  COC(OC)C1OC(CO)C(n2cc(F)c(=O)[nH]c2=O)C1O (configuration not stated)         > 100 µM
4           CN(/N=C\c1ccc2ccccc2c1)C1=NCCN1          31.7 µM
5  CNC(=O)CNC(=O)C(Cc1ccc(NC(=O)CCCCC(C)=O)cc1)NC(=O)C(CCC(=O)OCc1ccccc1)NC(=O)OC(C)(C)C (configuration not stated)         > 100 µM
6   CCCC(=O)Oc1ccc2c(C)cc(=O)oc2c1OC(=O)CCC         > 100 µM
7  c1ccc2cc(Cn3c[n+](Cc4ccc5ccccc5c4)c4ccccc43)ccc2c1          4.62 µM
8  O=C1/C(=C\c2ccc(F)cc2)CCOc2c1ccc1ccccc21         > 100 µM
9  CCCSc1ccc2[nH]c(N3C(=O)/C(=C/c4cc(OC)c(OC)c(OC)c4)N=C3c3ccccc3)cc2c1        > 37.5 µM

Quick batch: TGI for everything below.
1. COC(=O)c1nc(-c2nc(CCNC(=O)OC(C)(C)C)sc2Cl)sc1Cl
2. CCOc1ccc2ccc3cccnc3c2n1

# output
1. > 100 µM
2. > 100 µM

---

- Tested on: OVCAR-3 ovarian
- experimental-details: NCI tumour cell line growth inhibition, 48 h
Give measured TGI for each item. Keep answers brief.
Answers are plain numbers, in µM.

In [3]: df
Out[3]:
                      entry_smiles  reported_result
0  CN(/N=C\c1ccc2ccccc2c1)C1=NCCN1             99.6

Lab note: next molecule to report on.
# input Please report TGI with OVCAR-3 ovarian for item `O=C1/C(=C\c2ccc(F)cc2)CCOc2c1ccc1ccccc21` .
# output 27.9

---

Exercise: state measured TGI for each of the molecules provided.
- Tested on: SK-MEL-28 melanoma
- experimental-details: NCI tumour cell line growth inhibition, 48 h

List the reported TGI of each molecule below.
1. Nc1cc(N2CCOCC2)nc(=O)n1-c1ccc(Cl)cc1
2. COc1cc2c(c(OC)c1OC)C(=O)[C@H](Br)[C@H]2NC(=O)NCCCl
3. CCCC(=O)OCC1OC(n2cc(F)c(=O)[nH]c2=O)C(F)C1OC(=O)CCC (configuration not stated)
4. COC(=O)c1ccccc1NC(=O)C(=O)CC(=O)CC(c1ccccc1)c1c(O)c2ccccc2oc1=O (configuration not stated)
5. COc1ccc(C(=O)COc2cccc(/C=C3\CSc4ccc(Cl)cc4C3=O)c2)cc1
6. O=C(Nc1ccc(Cl)cc1)c1cc(S(=O)(=O)Nc2nnc(-c3ccccc3)c(-c3ccccc3)n2)c(SCc2ccccc2)cc1Cl
7. COC(=O)C1=C(O)CCCC(CCC(C)=O)=C1

# output
> 100 µM
> 100 µM
> 100 µM
> 100 µM
29 µM
> 73.6 µM
> 100 µM

Each molecule below has a recorded value; state its TGI.
1. C(=C\c1nccc2c1[nH]c1ccccc12)/c1ccccc1
2. COc1cc(-c2cc(/C=C3\C(=O)Nc4ccccc43)[nH]n2)cc(OC)c1OC
3. Cc1n[nH]c(=O)n1/N=C/c1ccncc1
4. O=[N+]([O-])c1ccc2c(c1)nc(Cc1ccc(Cl)cc1)n2C[C@@H]1CCCN2CCCCC12 (some centres not stated)
5. NCCP(=O)(O)O
6. NC(Cc1ccnnc1)C(=O)O (configuration not stated)

# output
1: 28.4 µM; 2: 11.3 µM; 3: > 100 µM; 4: 30.1 µM; 5: > 100 µM; 6: > 100 µM

For every record below, what is its TGI?
1. COc1ccc(Cl)cc1NC(=O)c1cccc([N+](=O)[O-])c1O
2. O=C(Nc1ccccc1O)c1ccc(CNC(=O)c2sccc2Nc2ccnc(C(F)(F)F)c2)cc1
3. COc1ccc(/C=C/C(=O)c2cc3c(N)c(C(=O)Nc4ccccc4C)sc3nc2C)cc1
4. Nc1nc(NCC2(CO)CCC2)cc(=O)[nH]1

# output
["> 91.4 µM", "46.3 µM", "> 50 µM", "> 100 µM"]
